Parameter GHS category: see the listing below.
test: GHS categories as the set defines them, by LD50: 1 up to 5, 2 up to 50, 3 up to 300, 4 up to 2000, 5 above 2000 mg/kg; conditions: rat; in vivo; po
I only need the number, thanks.

| COMPOUND | GHS category |
| --- | --- |
| CN1C(=O)CCc2c(OCCCN3CCC(Cc4ccccc4)CC3)cccc21 | 4 |

# GHS category lookup, item CC(C)(C)c1ccc(C2=C3C(=O)NC(c4ccc(C(C)(C)C)cc4)=C3C(=O)N2)cc1
5

# GHS category lookup, item CCCC(=O)O[C@]1(C(=O)CO)CC[C@H]2[C@@H]3CCC4=CC(=O)CC[C@]4(C)[C@H]3[C@@H](O)C[C@@]21C
5

# GHS category lookup, item CCCCCCCCCC(C)C=O (centres undefined)
5

# GHS category lookup, item COc1ccc(CC(C)NCC(O)c2ccc(O)c(CO)c2)cc1 (centres undefined)
4

# GHS category lookup, item O=C1CCc2c(OCC(O)CN3CCC(Cc4ccccc4)CC3)cccc2N1Cc1ccccc1 (centres undefined)
4

* * *

Parameter GHS category: see the listing below.
experiment: GHS categories as the set defines them, by LD50: 1 up to 5, 2 up to 50, 3 up to 300, 4 up to 2000, 5 above 2000 mg/kg; details: rat; in vivo; po

Please review the entries below; each comes with its answer.
| SUBSTANCE SMILES | GHS category |
| --- | --- |
| CCC(=O)O[C@H]1[C@H](O[C@@H]2[C@@H](C)[C@H](O[C@H]3C[C@@](C)(OC)[C@@H](O)[C@H](C)O3)[C@@H](C)C(=O)O[C@H](CC)[C@@](C)(O)[C@H](O)[C@@H](C)C(=O)[C@H](C)C[C@@]2(C)O)O[C@H](C)C[C@@H]1N(C)C | 5 |
| Cc1cc(-n2nc3ccc(Cl)cc3n2)c(O)c(C(C)(C)C)c1 | 5 |
| CC(=O)Oc1ccccc1C(=O)Oc1cccc(CO[N+](=O)[O-])c1 | 5 |
| COc1cc(-c2cc(OC)cc(C(C)(C)C)c2O)c(O)c(C(C)(C)C)c1 | 5 |
| C[C@@H]1CCN(C(=O)[C@H](CCCNC(=N)N)NS(=O)(=O)c2cccc3c2NC[C@H](C)C3)[C@@H](C(=O)O)C1 | 5 |
| CCCCn1cc2c3c(cccc31)[C@@]1(OC)C[C@@H](COC(=O)c3cncc(Br)c3)CN(C)[C@@H]1C2 | 4 |
| COC(F)(F)C(C(F)(F)F)C(F)(F)F | 3 |
| COc1cc(OC)nc(N=C(O)NS(=O)(=O)N(C)S(C)(=O)=O)n1 | 5 |

# GHS category lookup, item CC/C=C\CCCCCCCCOC(C)=O
5

* * *

Assay: GHS categories as the set defines them, by LD50: 1 up to 5, 2 up to 50, 3 up to 300, 4 up to 2000, 5 above 2000 mg/kg
Settings: rat; in vivo; po
Source text: […]The data set underlying the modeling effort for this project was initially compiled by NICEATM and U.S. EPA’s CCTE. Briefly, LD50 data were collected from rat acute oral systemic toxicity tests, including limit tests, ranges/confidence intervals, and discrete LD50 values. The full data set included 21,200 LD50 entries for 15,688 substances. […]
Parameter GHS category: see the listing below.
I only need the number, thanks.

Please review the entries below; each comes with its answer.
| COMPOUND | ASSAY VALUE |
| --- | --- |
| CC(=O)Oc1c(I)cc(I)cc1C(=O)Nc1ccc(Cl)cc1 | 5 |
| O=c1[nH]sc2cc(Cl)ccc12 | 5 |
| CCCCC(=O)O[C@]1(C(=O)CO)[C@H](C)C[C@H]2[C@@H]3CCC4=CC(=O)C=C[C@]4(C)[C@@]3(F)[C@@H](O)C[C@@]21C | 5 |

# GHS category lookup, item CC(=O)N(C)C(=O)Oc1cccc2c1OCO2
4

# GHS category lookup, item Brc1ccc(CNC2=NCCS2)cc1
3

# GHS category lookup, item C=CCCCCCCCCC(OCC=C(C)CCC=C(C)C)OCC=C(C)CCC=C(C)C (stereo not drawn)
5

# GHS category lookup, item CCCC=CCC1CCCC1=O (stereo not drawn)
5

# GHS category lookup, item O=C(O)CN1C(=O)c2cccc3cccc(c23)C1=O
5

# GHS category lookup, item CCCCN(CCCC)C(=S)SCSC(=S)N(CCCC)CCCC
5

# GHS category lookup, item C#CCOC(=O)Nc1nc(N2CC=CCC2)cc2nc(=O)on12
5

# GHS category lookup, item NC(=O)Oc1ccc(Cl)cc1C(=O)Oc1ccccc1
5

# GHS category lookup, item CC(C)(O)C(=O)c1ccc(Cc2ccc(C(=O)C(C)(C)O)cc2)cc1
5

# GHS category lookup, item CCOP(=S)(OCC)N(SN(C)C(=O)ON=C(C)SC)C1CCCCC1
3

# GHS category lookup, item CCCCCCCCCCCCCCCCCC(=O)NP(=O)(OC)SC (stereo not drawn)
3

# GHS category lookup, item O=C1c2ccccc2C(=O)c2c(NCCO)ccc(NCCO)c21
5

# GHS category lookup, item CC(=O)C(N=Nc1cc(C(=O)Nc2cc(Cl)ccc2C)ccc1Cl)C(=O)Nc1cc(C)c(NC(=O)C(N=Nc2cc(C(=O)Nc3cc(Cl)ccc3C)ccc2Cl)C(C)=O)cc1C (stereo not drawn)
5

# GHS category lookup, item Cc1cc(C2(c3ccc(O)cc3)NC(=O)NC2=O)ccc1O (stereo not drawn)
5

* * *

assay: GHS categories as the set defines them, by LD50: 1 up to 5, 2 up to 50, 3 up to 300, 4 up to 2000, 5 above 2000 mg/kg; conditions: rat; in vivo; po
Parameter GHS category: see the listing below.
I only need the number, thanks.

Please review the entries below; each comes with its answer.
| COMPOUND | REPORTED METRIC | ASSAY VALUE |
| --- | --- | --- |
| O=C(Nc1cc(Cl)c(Cl)cc1Cl)c1cc(Cl)cc(-c2ccccc2)c1O | GHS category | 5 |
| C=CC(C)(CCC=C(C)C)OC(=O)c1ccccc1 (configuration not stated) | GHS category | 5 |
| CCCC(=O)OCCC(C)C | GHS category | 5 |
| CCCc1c(Cc2ccc(-c3ccccc3-c3nn[nH]n3)cc2)c(=S)nc2nc[nH]n12 | GHS category | 4 |

# GHS category lookup, item CCO[C@@H]1O[C@H](C(COCc2ccccc2)OCc2ccccc2)[C@H](OCc2ccccc2)[C@H]1O (some centres not stated)
5

# GHS category lookup, item CCCCNC(=O)CC[C@H](NC(=O)C(CC)CCCC)C(=O)NCCCC (some centres not stated)
5

# GHS category lookup, item CCOC(=O)/C(Cl)=C/c1cc(N2C(=O)C3=C(CCCC3)C2=O)ccc1Cl
5

# GHS category lookup, item CCCCCCCCCCCCCC(=O)O
5

# GHS category lookup, item Cc1c(CC(=O)O)c2c(n1CC(C)C)CC(C)(C)CC2=O
5

# GHS category lookup, item CC[C@H](C)C(=O)O[C@H]1C[C@H](O)C=C2C=C[C@H](C)[C@H](CC[C@@H](O)C[C@@H](O)CC(=O)O)[C@H]21
5

# GHS category lookup, item CCC1(C)Oc2cccc(OC(=O)N(C)C(C)=O)c2O1 (configuration not stated)
3

* * *

test: GHS categories as the set defines them, by LD50: 1 up to 5, 2 up to 50, 3 up to 300, 4 up to 2000, 5 above 2000 mg/kg; details: rat; in vivo; po
Parameter GHS category: see the listing below.
I only need the number, thanks.

| COMPOUND | GHS category |
| --- | --- |
| O=c1[nH]c(=O)[nH]c(=O)[nH]1 | 5 |
| Cc1cc(C)nc(NC(=O)NS(=O)(=O)c2ccccc2C(=O)OC2COC2)n1 | 5 |
| CCO[Si](CCCOCC1CO1)(OCC)OCC (stereo not drawn) | 5 |
| Cc1ccc(Cl)cc1NC(=O)c1cc2ccccc2cc1O | 5 |
| CN1CC(c2ccn(C)n2)CC2c3cccc4[nH]cc(c34)CC21 (stereo not drawn) | 4 |

# GHS category lookup, item CC(C)(C1CCCO1)C1CCCO1 (stereo not drawn)
4

# GHS category lookup, item CC1CCC(C(C)(C)O)CC1 (stereo not drawn)
5

# GHS category lookup, item O=S(=O)(O)c1ccc(N2N=C(c3ccc(Cl)cc3)CC2c2ccccc2)cc1 (stereo not drawn)
5

# GHS category lookup, item CCn1nnnc1CSCCC(N)=O
4

* * *

test: GHS categories as the set defines them, by LD50: 1 up to 5, 2 up to 50, 3 up to 300, 4 up to 2000, 5 above 2000 mg/kg; conditions: rat; in vivo; po
Parameter GHS category: see the listing below.

Please review the entries below; each comes with its answer.
| COMPOUND | GHS category |
| --- | --- |
| CCCc1c(Cc2ccc(-c3ccccc3-c3nn[nH]n3)cc2)c(N)nc2ncnn12 | 4 |
| CCCCn1c(C)c(CC(=O)O)c2c1CC(C)(C)CC2=O | 5 |
| O=S(=O)(O)c1ccc(/N=N/c2cc(S(=O)(=O)O)c3ccccc3c2O)c2ccccc12 | 5 |

Now take the following compound into account.
# GHS category lookup, item C=C(C)CCO
5
